# testedSystem: T1, His-tagged, full-length PCSK9 (human, UniProt Q8NBP7 31-692)
# T1 construct: The secreted protein is autocleaved into a prodomain and a catalytic/Cys-rich chain that starts at S153; also called His-PCSK9
# T1 sequence (Q8NBP7 other isoform, or with tags, fused parts or gaps limits assumed): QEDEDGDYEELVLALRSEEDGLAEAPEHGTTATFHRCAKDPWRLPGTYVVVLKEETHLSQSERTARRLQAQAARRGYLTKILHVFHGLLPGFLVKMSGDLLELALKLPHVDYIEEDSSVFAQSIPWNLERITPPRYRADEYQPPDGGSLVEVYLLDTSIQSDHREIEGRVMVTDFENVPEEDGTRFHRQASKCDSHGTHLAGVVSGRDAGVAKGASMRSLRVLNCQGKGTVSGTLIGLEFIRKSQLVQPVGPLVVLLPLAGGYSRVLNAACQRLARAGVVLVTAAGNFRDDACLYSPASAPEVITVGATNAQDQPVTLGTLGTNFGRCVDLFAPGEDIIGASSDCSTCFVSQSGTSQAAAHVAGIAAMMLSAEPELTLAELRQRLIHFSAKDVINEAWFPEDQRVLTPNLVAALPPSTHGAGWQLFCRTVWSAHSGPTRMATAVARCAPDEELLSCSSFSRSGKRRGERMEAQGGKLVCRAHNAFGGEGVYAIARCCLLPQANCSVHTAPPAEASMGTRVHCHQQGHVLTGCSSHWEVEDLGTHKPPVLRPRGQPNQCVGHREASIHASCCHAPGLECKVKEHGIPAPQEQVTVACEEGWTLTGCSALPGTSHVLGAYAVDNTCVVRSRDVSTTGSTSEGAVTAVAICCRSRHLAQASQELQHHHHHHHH
# measurementNotes: TR-FRET competition; His-PCSK9, competitor EGF(A)-Fc
Square brackets hold non-standard residues; d marks the D form. Ends that are not written are not given here. * marks the point of attachment. hArg = N=C(N)NCCCC[C@H](N)C(=O)O; Pentanoyl = CCCCC(=O)*
What IC50 was measured for each of the following?

Recorded IC50 for WNLV[hArg]IGQR (also: further groups not given here, Structure printed only as a drawing) [Compound 239] , please?
32 µM

Recorded IC50 for WNLVRIGLLR (also: further groups not given here, Structure printed only as a drawing) [Compound 136] , please?
≥ 50 µM

Recorded IC50 for WNLVRIGLTR (also: further groups not given here, Structure printed only as a drawing) [Compound 163] , please?
≥ 50 µM

Recorded IC50 for Ac-DLMPWNLKRIGLLR-NH2 [Compound 158] , please?
≥ 50 µM

Recorded IC50 for WNLVRIGLLR (also: further groups not given here, Structure printed only as a drawing) [Compound 144] , please?
9.7 µM

Recorded IC50 for Pentanoyl-WNLVRIGLAR-NH2 (SMILES CCCCC(=O)N[C@@H](Cc1c[nH]c2ccccc12)C(=O)N[C@@H](CC(N)=O)C(=O)N[C@@H](CC(C)C)C(=O)N[C@H](C(=O)N[C@@H](CCCNC(=N)N)C(=O)N[C@H](C(=O)NCC(=O)N[C@@H](CC(C)C)C(=O)N[C@@H](C)C(=O)N[C@@H](CCCNC(=N)N)C(N)=O)[C@@H](C)CC)C(C)C) [Compound 180] , please?
≥ 50 µM

Recorded IC50 for Pentanoyl-WNLVRIGLDR-NH2 (SMILES CCCCC(=O)N[C@@H](Cc1c[nH]c2ccccc12)C(=O)N[C@@H](CC(N)=O)C(=O)N[C@@H](CC(C)C)C(=O)N[C@H](C(=O)N[C@@H](CCCNC(=N)N)C(=O)N[C@H](C(=O)NCC(=O)N[C@@H](CC(C)C)C(=O)N[C@@H](CC(=O)O)C(=O)N[C@@H](CCCNC(=N)N)C(N)=O)[C@@H](C)CC)C(C)C) [Compound 178] , please?
≥ 50 µM

Recorded IC50 for WNLV[hArg]IGLLR (also: end groups and other groups only in drawing, Structure printed only as a drawing) [Compound 205] , please?
2.8 µM

Recorded IC50 for {n‑PrC(O)}-WNLVRIGLLR-NH2 [Compound 123] , please?
≥ 50 µM

Recorded IC50 for Ac-MDSFPGWNLVRIGLLR-NH2 [Compound 153] , please?
12 µM

Recorded IC50 for WNLVRIGLLR (also: further groups not given here, Structure printed only as a drawing) [Compound 134] , please?
≥ 50 µM
